Molecular target: dopamine D2 receptor (Rattus norvegicus, UniProt P61169)
Construct: homogenized rat striatal brain tissue
Sequence (P61169 whole entry): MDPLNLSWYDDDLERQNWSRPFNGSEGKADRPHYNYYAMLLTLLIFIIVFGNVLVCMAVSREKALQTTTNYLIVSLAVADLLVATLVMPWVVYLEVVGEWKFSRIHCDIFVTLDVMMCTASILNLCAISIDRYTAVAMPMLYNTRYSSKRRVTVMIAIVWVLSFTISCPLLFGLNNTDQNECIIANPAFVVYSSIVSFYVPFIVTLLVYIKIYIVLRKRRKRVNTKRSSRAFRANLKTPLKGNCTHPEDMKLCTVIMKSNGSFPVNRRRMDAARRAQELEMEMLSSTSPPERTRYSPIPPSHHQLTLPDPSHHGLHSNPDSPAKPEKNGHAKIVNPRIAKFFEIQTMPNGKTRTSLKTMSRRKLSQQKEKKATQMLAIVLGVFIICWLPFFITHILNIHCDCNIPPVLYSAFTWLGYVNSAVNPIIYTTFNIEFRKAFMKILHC
Experiment: Affinity for the dopamine D2 receptor (3H-quinpirole, rat striatal brain tissue homogenate)
Conditions: homogenized rat striatal brain tissue
pIC50: −log10 of the molar value.
observable: pIC50

Worked set:
* O=C1Cc2c(ccc3c2O[C@@H](CNCc2cccc4ccccc24)CO3)N1 | 9.31
* O=C1Cc2c(ccc3c2O[C@@H](CNCc2ccc(C(F)(F)F)cc2)CO3)N1 | 9.47
* O=C1Cc2c(ccc3c2O[C@@H](CNCCCCc2ccccc2)CO3)N1 | 9.48
* O=C1Nc2ccc3c(c2C1=Cc1ccccc1)O[C@@H](CNCc1ccccc1)CO3 | 8.55
* CCCCCNC[C@H]1COc2ccc3c(c2O1)CC(=O)N3 | 9.35
* Cc1ccc(CNC[C@H]2COc3cc(Cl)c4c(c3O2)CC(=O)N4)cc1 | 8.84
* CC(=O)Nc1cccc(OCCCNC[C@H]2COc3ccc4c(c3O2)CC(=O)N4)c1 | 9.05

[P] Cc1ccc(C=C2C(=O)Nc3c(F)cc4c(c32)O[C@@H](CNCc2ccc(C)cc2)CO4)cc1
[Q] O=C1Cc2c(c(Cl)cc3c2O[C@@H](CNCc2ccccc2)CO3)N1
Request: // pick min by pIC50: P , Q Write down the label attached to your selection.
Result: P

---

Biological target: dopamine D2 receptor (Rattus norvegicus, UniProt P61169)
Construct: homogenized rat striatal brain tissue
Assay: Affinity for the dopamine D2 receptor (3H-quinpirole, rat striatal brain tissue homogenate)
Details: homogenized rat striatal brain tissue
observable: IC50 (nM)

Worked set:
* O=C1Cc2c(c(F)cc3c2O[C@@H](CNCc2ccc(Cl)cc2)CO3)N1 | 0.53
* O=C1Cc2c(ccc3c2O[C@@H](CNCC24CC5CC(CC(C5)C2)C4)CO3)N1 | 0.43
* O=C1Cc2c(ccc3c2O[C@@H](CNCc2cccc(C(F)(F)F)c2)CO3)N1 | 1.04
* O=C1Cc2c(c(Cl)cc3c2O[C@@H](CNCc2ccc(F)cc2)CO3)N1 | 1
* O=C1Cc2c(ccc3c2O[C@@H](CNCc2ccccc2)CO3)N1 | 0.37

[a] CN(C)c1cccc(OCCCNC[C@H]2COc3cc(F)c4c(c3O2)CC(=O)N4)c1
[b] O=C1Cc2c(ccc3c2O[C@@H](CNCc2ccc(F)cc2)CO3)N1
[c] O=C1Cc2c(c(Cl)cc3c2O[C@@H](CNCc2ccc(Cl)cc2)CO3)N1
Request: Order the 3 compounds from highest to lowest IC50. Dear reader, please state the labels in the requested order.
Result: c, a, b
(c: 0.98 nM, a: 0.51 nM, b: 0.29 nM)

[1] Cc1cc2c(c3c1NC(=O)C3)O[C@@H](CNCc1cccs1)CO2
[2] O=C1Nc2ccc3c(c2C1=Cc1ccc(F)cc1)O[C@@H](CNCc1ccc(F)cc1)CO3
[3] O=C1Cc2c(c(F)cc3c2O[C@@H](CNCc2ccccc2)CO3)N1
Request: Please order the records by their reported IC50, lowest number first. Dear reader, please state the labels in the requested order.
Result: 3, 1, 2

[P] O=C1CCc2c(ccc3c2O[C@@H](CNCc2ccccc2)CO3)N1
[Q] O=C1Cc2c(ccc3c2O[C@@H](CNCCc2cccnc2)CO3)N1
[R] O=C1Cc2c(ccc3c2O[C@@H](CNCCc2c[nH]c4ccccc24)CO3)N1
Request: Please order the records by their reported IC50, lowest number first. Dear reader, please state the labels in the requested order.
Result: R, Q, P
(R: 1.79 nM, Q: 3.06 nM, P: 12.3 nM)

[A] COc1ccc(CNC[C@H]2COc3ccc4c(c3O2)CC(=O)N4)cc1
[B] O=C1Cc2c(ccc3c2O[C@@H](CNCCCO)CO3)N1
Request: // pick min by IC50: A , B Write down the label attached to your selection.
Result: A

[P] O=C1Cc2c(c(F)cc3c2O[C@@H](CNCC24CC5CC(CC(C5)C2)C4)CO3)N1
[Q] Cc1ccc(CNC[C@H]2COc3ccc4c(c3O2)CC(=O)N4)cc1
Request: // pick min by IC50: P , Q Write down the label attached to your selection.
Result: Q

These data points were gathered from patent US5756532A.
